From: paper PMC9371724

- SYSTEM_TESTED: T1, HA69 peptide on HLA DQB1*06:02/DQA1*01:02 (DQ0602) (human)
- T1 peptide: AMERNAGSGIIISDT
- EXPERIMENT_DESCRIPTION: activation reporter or marker

BINDER: …-1 (TCR) alpha TRAV5 TRAJ8 CDR3: CAEMDTGFQKLVF beta TRBV6-5 TRBJ1-1 CDR3: CASSGQGSTEAFF
binding result: no recognition
--
BINDER: TCR CAVSRAGANNLFF / CASSQGLGPGLFNQPQHF (TCR) alpha TRAV21 TRAJ36 CDR3: CAVSRAGANNLFF beta TRBV4-3 TRBJ1-5 CDR3: CASSQGLGPGLFNQPQHF
binding result: recognises
--
BINDER: TCR CAASMSTNQGGKLIF / CSADRYAYEQYF (TCR) alpha TRAV13-1 TRAJ23 CDR3: CAASMSTNQGGKLIF beta TRBV20-1 TRBJ2-7 CDR3: CSADRYAYEQYF
binding result: recognises
--
BINDER: TCR CAVSEKNTGFQKLVF / CASRKGLGDTDTQYF (TCR) alpha TRAV8-6 TRAJ8 CDR3: CAVSEKNTGFQKLVF beta TRBV6-1 TRBJ2-3 CDR3: CASRKGLGDTDTQYF
binding result: recognises
--
BINDER: …-1 (TCR) alpha TRAV29/DV5 TRAJ48 CDR3: CAAKGGGNEKLTF beta TRBV12-3 TRBJ1-3 CDR3: CASTPRVLQFSGNTIYF
binding result: no recognition
--
BINDER: TCR819 (TCR) alpha TRAV17 TRAJ34 CDR3: CATAAYNTDKLIF beta TRBV4-3 TRBJ1-2 CDR3: CASSQAMTGGSDYGYTF
binding result: recognises
--
BINDER: TCR839 (TCR) alpha TRAV12-2 TRAJ37 CDR3: CAVNPPWSNTGKLIF beta TRBV19 TRBJ2-5 CDR3: CASTRGVGTSGAKETQYF
binding result: recognises
--
BINDER: …-1 (TCR) alpha TRAV2 TRAJ20 CDR3: CAVEDKHDYKLSF beta TRBV9 TRBJ1-2 CDR3: CASSFKEGSNYGYTF
binding result: no recognition
--
BINDER: …-1 (TCR) alpha TRAV19 TRAJ45 CDR3: CALSEDAGGGADGLTF beta TRBV12-3 TRBJ2-5 CDR3: CASRRHQQETQYF
binding result: no recognition
--
BINDER: …-1 (TCR) alpha TRAV21 TRAJ46 CDR3: CAVRPKEGSGDKLTF beta TRBV2 TRBJ2-2 CDR3: CASSESGRGPGELFF
binding result: no recognition
--
BINDER: TCR CIVRAGGTSYGKLTF / CAWSPLAGTGAPQPQHF (TCR) alpha TRAV26-1 TRAJ52 CDR3: CIVRAGGTSYGKLTF beta TRBV30 TRBJ1-5 CDR3: CAWSPLAGTGAPQPQHF
binding result: recognises
--
BINDER: …-1 (TCR) alpha TRAV27 TRAJ26 CDR3: CKYGQNFVF beta TRBV19 TRBJ2-3 CDR3: CASSRPGLNTDTQYF
binding result: no recognition
--
BINDER: TCR CAGRPNSGGSNYKLTF / CASSDQAAWAGYTF (TCR) alpha TRAV35 TRAJ53 CDR3: CAGRPNSGGSNYKLTF beta TRBV19 TRBJ1-2 CDR3: CASSDQAAWAGYTF
binding result: recognises
--
BINDER: TCR CAASRGTSYDKVIF / CSATGLYNEQFF (TCR) alpha TRAV13-1 TRAJ50 CDR3: CAASRGTSYDKVIF beta TRBV20-1 TRBJ2-1 CDR3: CSATGLYNEQFF
binding result: recognises
--
BINDER: …-1 (TCR) alpha TRAV12-3 TRAJ39 CDR3: CATSYNNAGNMLTF beta TRBV4-2 TRBJ2-5 CDR3: CASSQGTSGEETQYF
binding result: no recognition
--
BINDER: TCR861 (TCR) alpha TRAV13-1 TRAJ50 CDR3: CAASRGTSYDKVIF beta TRBV29-1 TRBJ2-1 CDR3: CSVRSLYNEQFF
binding result: recognises
--
BINDER: TCR108 (TCR) alpha TRAV8-3 TRAJ24 CDR3: CAVGFTDSWGKLQF beta TRBV19 TRBJ2-1 CDR3: CASSIDPSGNHYNEQFF
binding result: recognises
--
BINDER: TCR CIVRVGTNQGGKLIF / CASSMGLALETQYF (TCR) alpha TRAV26-1 TRAJ23 CDR3: CIVRVGTNQGGKLIF beta TRBV19 TRBJ2-5 CDR3: CASSMGLALETQYF
binding result: recognises
--
BINDER: TCR CILRGGTNQGGKLIF / CSAEGQGAGNTIYF (TCR) alpha TRAV26-2 TRAJ23 CDR3: CILRGGTNQGGKLIF beta TRBV20-1 TRBJ1-3 CDR3: CSAEGQGAGNTIYF
binding result: recognises
--
BINDER: TCR CATDAYNTDKLIF / CASSQGAVPAGNTIYF (TCR) alpha TRAV17 TRAJ34 CDR3: CATDAYNTDKLIF beta TRBV4-3 TRBJ1-3 CDR3: CASSQGAVPAGNTIYF
binding result: recognises
--
BINDER: TCR CAMREGHIQGAQKLVF / CASSSGNLNTEAFF (TCR) alpha TRAV14/DV4 TRAJ54 CDR3: CAMREGHIQGAQKLVF beta TRBV19 TRBJ1-1 CDR3: CASSSGNLNTEAFF
binding result: recognises
--
BINDER: TCR CVHNAGNMLTF / CASSFQGLSTDTQYF (TCR) alpha TRAV25 TRAJ39 CDR3: CVHNAGNMLTF beta TRBV12-3 TRBJ2-3 CDR3: CASSFQGLSTDTQYF
binding result: recognises
--
BINDER: TCR CAVSERGAQKLVF / CSAPSGGGRASGANVLTF (TCR) alpha TRAV8-6 TRAJ54 CDR3: CAVSERGAQKLVF beta TRBV20-1 TRBJ2-6 CDR3: CSAPSGGGRASGANVLTF
binding result: recognises
--
BINDER: TCR CASAYTGTASKLTF / CASSIDLGGRADGGYTF (TCR) alpha TRAV17 TRAJ44 CDR3: CASAYTGTASKLTF beta TRBV19 TRBJ1-2 CDR3: CASSIDLGGRADGGYTF
binding result: recognises
--
BINDER: TCR CATVAYNTDKLIF / CASSPGRTGGTYYGYTF (TCR) alpha TRAV17 TRAJ34 CDR3: CATVAYNTDKLIF beta TRBV4-3 TRBJ1-2 CDR3: CASSPGRTGGTYYGYTF
binding result: recognises
--
BINDER: TCR CAVSDRDSGNTPLVF / CASSQGDVNYGYTF (TCR) alpha TRAV8-6 TRAJ29 CDR3: CAVSDRDSGNTPLVF beta TRBV4-3 TRBJ1-2 CDR3: CASSQGDVNYGYTF
binding result: recognises
--
BINDER: …-1 (TCR) alpha TRAV21 TRAJ30 CDR3: CAVGDDKIIF beta TRBV12-3 TRBJ1-1 CDR3: CASSSRSGLKAFF
binding result: no recognition
